Below: a set of entries, each annotated with reported EC50.
# Target Desc: human M2 receptor (Homo sapiens, UniProt P08172)
# Sequence (P08172 whole entry): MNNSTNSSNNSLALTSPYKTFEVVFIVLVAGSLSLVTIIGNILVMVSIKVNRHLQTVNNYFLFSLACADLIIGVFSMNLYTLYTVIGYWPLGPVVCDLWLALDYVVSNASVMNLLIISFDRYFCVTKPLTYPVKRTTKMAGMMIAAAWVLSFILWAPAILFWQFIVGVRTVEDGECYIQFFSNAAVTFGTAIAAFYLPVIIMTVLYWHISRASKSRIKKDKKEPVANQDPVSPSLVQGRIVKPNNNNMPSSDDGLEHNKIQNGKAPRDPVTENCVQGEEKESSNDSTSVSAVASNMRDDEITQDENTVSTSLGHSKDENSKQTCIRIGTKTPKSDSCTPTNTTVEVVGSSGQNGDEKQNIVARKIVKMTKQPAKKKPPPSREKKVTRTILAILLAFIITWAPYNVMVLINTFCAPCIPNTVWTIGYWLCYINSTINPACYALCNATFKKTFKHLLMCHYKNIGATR
# Measurement Protocol: Functional M2-GIRK1/4 activation test: allosteric potency (EC50) and efficiency at EC20 acetylcholine
# Cond: CHO-DUKX-M2-GIRK cells; voltage-sensitive dye; acetylcholine at EC20; in some cases mean of two or more determinations
Respond with the figure and its unit, in that order.

Fill blank: measured EC50 of the molecule COC[C@@H](NC(=O)c1cn(-c2c(F)cc(F)cc2F)c2nc(N3C[C@@H](O)[C@@H](O)C3)c(F)cc2c1=O)C(C)C [Example 102] is ____.
295 nM

Repeat with C[C@@H](NC(=O)c1cn(-c2c(F)cc(F)cc2F)c2nc(N3C[C@@H](O)[C@H](O)C3)c(F)cc2c1=O)C1CC1 [Example 19]
16 nM

Repeat with CCC(NC(=O)c1cn(-c2c(F)cc(F)cc2F)c2nc(N3C[C@@H](O)[C@H](O)C3)c(F)cc2c1=O)C(C)C (mixture of isomers) [Example 28]
3.15 nM

Repeat with O=C(NCC(F)(F)F)c1cn(-c2c(F)cc(F)cc2Cl)c2nc(N3C[C@@H](O)[C@H](O)C3)c(F)cc2c1=O [Example 221]
31 nM

Repeat with O=C(NC(C1CC1)C(F)(F)C(F)(F)F)c1cn(-c2c(F)cc(F)cc2F)c2nc(N3CC4(COC4)C3)c(F)cc2c1=O (single isomer, unassigned) [Example 206]
10 nM

Repeat with CCC(C)(C)NC(=O)c1cn(-c2c(F)cc(F)cc2F)c2nc(N(C)C)c(F)cc2c1=O [Example 61]
2.2 nM

Repeat with CN(C)c1nc2c(cc1F)c(=O)c(C(=O)NC(C)(C)C(F)(F)F)cn2-c1c(F)cc(F)cc1F [Example 62]
4.1 nM

Repeat with O=C(NCC(F)(F)F)c1cn(-c2c(F)cc(F)cc2Cl)c2nc(N3C[C@@H](O)[C@H](O)C3)c(F)cc2c1=O (single isomer, unassigned) [Example 223]
26 nM

Repeat with CCC(CC)(CC)NC(=O)c1cn(-c2c(F)cc(F)cc2F)c2nc(N3C[C@@H](O)[C@H](O)C3)c(F)cc2c1=O [Example 87]
1.4 nM

Repeat with CCN(CC(C)O)c1nc2c(cc1F)c(=O)c(C(=O)N[C@@H](C1CC1)C(F)(F)F)cn2-c1c(F)cc(F)cc1F (single isomer, unassigned) [Example 66]
35 nM

Repeat with CCC(NC(=O)c1cn(-c2c(F)cc(F)cc2F)c2nc(N3CC[C@H](O)C3)c(F)cc2c1=O)C(C)C (single isomer, unassigned) [Example 117]
6.9 nM

Repeat with CC(C)C(NC(=O)c1cn(-c2c(F)cc(F)cc2F)c2nc(N3C[C@@H](O)[C@H](O)C3)c(F)cc2c1=O)C(C)C [Example 24]
1.35 nM

Repeat with C[C@H](NC(=O)c1cn(-c2c(F)cc(F)cc2Cl)c2nc(N3C[C@@H](O)[C@H](O)C3)c(F)cc2c1=O)C1CC1 [Example 43]
7.5 nM

Repeat with CC[C@H](NC(=O)c1cn(-c2c(F)cc(F)cc2F)c2nc(N3C[C@@H](O)[C@H](O)C3)c(F)cc2c1=O)C(F)(F)F [Example 6]
6.17 nM

Repeat with CC(C)(NC(=O)c1cn(-c2c(F)cc(F)cc2F)c2nc(N3CCOCC3)c(F)cc2c1=O)C(F)F [Example 150]
24 nM

Repeat with O=C(NCC(F)(F)F)c1cn(-c2c(F)cc(F)cc2Cl)c2nc(N3C[C@@H](O)[C@H](O)C3)c(F)cc2c1=O (single isomer, unassigned) [Example 222]
550 nM

Repeat with CC(C)[C@@H](C)NC(=O)c1cn(-c2c(F)cc(F)cc2F)c2nc(N3CC[C@H](O)C3)c(F)cc2c1=O [Example 120]
10.5 nM

Repeat with O=C(N[C@@H](C1CC1)C(F)(F)F)c1cn(-c2c(F)cc(F)cc2Cl)c2nc(N3C[C@@H](O)[C@H](O)C3)c(F)cc2c1=O (single isomer, unassigned) [Example 52]
1.3 nM
